system_name: factor XIIa (Homo sapiens)
Sequence (P00748 373-615 limits assumed, other chains not shown): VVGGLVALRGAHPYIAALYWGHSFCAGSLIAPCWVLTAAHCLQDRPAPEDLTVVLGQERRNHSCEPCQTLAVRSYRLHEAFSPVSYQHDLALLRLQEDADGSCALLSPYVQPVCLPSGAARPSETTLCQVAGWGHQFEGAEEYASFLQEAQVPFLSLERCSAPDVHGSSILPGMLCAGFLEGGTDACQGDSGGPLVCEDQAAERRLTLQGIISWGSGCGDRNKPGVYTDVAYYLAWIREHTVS
method_description: Inhibition of factor XIIa: kinetics of hydrolysis of chromogenic substrate S2302
Type: biochemical
experimental_parameters: % of enzyme inhibition at 30 µM, averaged over three measurements; read-out: Inhibition Activity at 30 µM, %
readout_label: inhibition at 30 µM (%)
Return type: number; implicit unit %.

{"compound": "COc1cc2c3c(c1)C(=NNC(=N)N)C(=O)N3C(C)(C)C=C2CN1CCN(c2ccc(F)cc2)CC1", "units_of_measure": "%", "inhibition at 30 µM": 27}
{"compound": "CCc1cc2c3c(c1)C1(C(=O)N3C(C)(C)CC2C)C(C#N)=C(N)Oc2c1c(=O)[nH]c1ccccc21 (stereo not drawn)", "units_of_measure": "%", "inhibition at 30 µM": 10}
{"compound": "COc1ccc(C(=O)c2cc3cc4c(cc3oc2=O)N(C)C(C)(C)CC4C)cc1 (stereo not drawn)", "units_of_measure": "%", "inhibition at 30 µM": 0}
{"compound": "COc1ccc(C2C(C#N)=C(N)Oc3c2c(=O)[nH]c2ccccc32)cc1OC (stereo not drawn)", "units_of_measure": "%", "inhibition at 30 µM": 15}
{"compound": "COc1cc2c3c(c1)C(=NNC(=N)N)C(=O)N3C(C)(C)C=C2C", "units_of_measure": "%", "inhibition at 30 µM": 0}
{"compound": "COc1cc2c3c(c1)/C(=N/OC(=O)c1ccccc1)C(=O)N3C(C)(C)C=C2C", "units_of_measure": "%", "inhibition at 30 µM": 0}

Let's switch to this compound now.
Item CC1CCc2nc3oc(-c4ccccc4)cc3c(N)c2C1 (stereo not drawn) was tested on factor XIIa (Homo sapiens); the reported inhibition at 30 µM is 0

###

system_name: factor Xa (Homo sapiens)
Sequence (P00742 235-488 limits assumed): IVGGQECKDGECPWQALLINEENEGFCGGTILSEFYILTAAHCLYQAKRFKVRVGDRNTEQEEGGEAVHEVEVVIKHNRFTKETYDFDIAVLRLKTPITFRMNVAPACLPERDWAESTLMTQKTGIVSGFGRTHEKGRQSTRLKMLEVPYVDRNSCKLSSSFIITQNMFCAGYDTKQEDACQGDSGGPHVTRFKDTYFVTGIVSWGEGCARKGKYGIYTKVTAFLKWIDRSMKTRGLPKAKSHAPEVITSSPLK
Sequence (P00742 41-179 partner limits assumed): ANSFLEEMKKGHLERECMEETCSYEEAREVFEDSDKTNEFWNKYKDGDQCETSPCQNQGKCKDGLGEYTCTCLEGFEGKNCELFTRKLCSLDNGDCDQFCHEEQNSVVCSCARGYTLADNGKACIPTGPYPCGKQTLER
readout_label: pIC50
pIC50 (log units): -log10 of the concentration in mol/L.

Item COc1cc2c3c(c1)C1(C(=O)N3C(C)(C)CC2C)C(C#N)=C(N)Oc2c1c(=O)oc1ccccc21 (centres unmarked) was tested on factor Xa (Homo sapiens); the reported pIC50 is 4.91

###

pIC50: −log10 of the molar value.
Record type: pIC50 measurement. Applies to: factor XIa (Homo sapiens, UniProt P03951)

{"molecule": "CC1(C)CC2(CCCCC2)N2C(=O)C3(NCCc4c3[nH]c3ccccc43)c3cccc1c32 (centres unmarked)", "result_value": "< 4.52"}

Item COc1cc2c3c(c1)C1(C(=O)N3C(C)(C)CC2C)C(C#N)=C(N)Oc2c1c(=O)oc1ccccc21 (centres unmarked) was tested on factor XIa (Homo sapiens, UniProt P03951); the reported pIC50 is < 4.52
